Conditions: in acetone, 323.15 K
Assay metric: solubility (mole fraction)
# print the numeric value only

Lookup: Return reported solubility (mole fraction). Input compound: Nc1ncnc2c1ncn2CCOCP(=O)(O)O
Found: 0.00065

----------
Conditions: in ethanol, 288.15 K
Assay metric: solubility (mole fraction)
# print the numeric value only

Lookup: Return reported solubility (mole fraction). Input compound: Nc1ncnc2c1ncn2CCOCP(=O)(O)O
Found: 0.00012

----------
Settings: in isobutanol, 303.15 K
Assay metric: solubility (mole fraction)
# print the numeric value only

Lookup: Return reported solubility (mole fraction). Input compound: Nc1ncnc2c1ncn2CCOCP(=O)(O)O
Found: 0.000433

----------
Details: in ethanol, 323.15 K
Assay metric: solubility (mole fraction)

Lookup: Return reported solubility (mole fraction). Input compound: Nc1ncnc2c1ncn2CCOCP(=O)(O)O
Found: 0.000541

----------
Conditions: in DMF, 308.15 K
Assay metric: solubility (mole fraction)
# print the numeric value only

Lookup: Return reported solubility (mole fraction). Input compound: Nc1ncnc2c1ncn2CCOCP(=O)(O)O
Found: 0.00172

----------
Details: in methanol, 288.15 K
Assay metric: solubility (mole fraction)
# print the numeric value only

Lookup: Return reported solubility (mole fraction). Input molecule: Nc1ncnc2c1ncn2CCOCP(=O)(O)O
Found: 0.000455

----------
Conditions: in toluene, 318.15 K
Assay metric: solubility (mole fraction)
# print the numeric value only

Lookup: Return reported solubility (mole fraction). Input molecule: Nc1ncnc2c1ncn2CCOCP(=O)(O)O
Found: 0.000373

----------
Conditions: in methanol, 323.15 K
Assay metric: solubility (mole fraction)
# print the numeric value only

Lookup: Return reported solubility (mole fraction). Input compound: Nc1ncnc2c1ncn2CCOCP(=O)(O)O
Found: 0.00122

----------
Details: in DMF, 323.15 K
Assay metric: solubility (mole fraction)
# print the numeric value only

Lookup: Return reported solubility (mole fraction). Input molecule: Nc1ncnc2c1ncn2CCOCP(=O)(O)O
Found: 0.0053

----------
Settings: in acetone, 303.15 K
Assay metric: solubility (mole fraction)

Lookup: Return reported solubility (mole fraction). Input molecule: Nc1ncnc2c1ncn2CCOCP(=O)(O)O
Found: 0.000286

----------
Details: in methanol, 298.15 K
Assay metric: solubility (mole fraction)
# print the numeric value only

Lookup: Return reported solubility (mole fraction). Input compound: Nc1ncnc2c1ncn2CCOCP(=O)(O)O
Found: 0.0006

----------
Details: in DMF, 278.15 K
Assay metric: solubility (mole fraction)
# print the numeric value only

Lookup: Return reported solubility (mole fraction). Input molecule: Nc1ncnc2c1ncn2CCOCP(=O)(O)O
Found: 0.000121

----------
Details: in DMF, 298.15 K
Assay metric: solubility (mole fraction)
# print the numeric value only

Lookup: Return reported solubility (mole fraction). Input compound: Nc1ncnc2c1ncn2CCOCP(=O)(O)O
Found: 0.000762

----------
Conditions: in ethanol, 283.15 K
Assay metric: solubility (mole fraction)
# print the numeric value only

Lookup: Return reported solubility (mole fraction). Input compound: Nc1ncnc2c1ncn2CCOCP(=O)(O)O
Found: 9.4e-05

----------
Details: in acetone, 278.15 K
Assay metric: solubility (mole fraction)
# print the numeric value only

Lookup: Return reported solubility (mole fraction). Input molecule: Nc1ncnc2c1ncn2CCOCP(=O)(O)O
Found: 0.000103

----------
Settings: in isobutanol, 288.15 K
Assay metric: solubility (mole fraction)
# print the numeric value only

Lookup: Return reported solubility (mole fraction). Input compound: Nc1ncnc2c1ncn2CCOCP(=O)(O)O
Found: 0.000252
